# Tested on: Escherichia coli
# method: Activity of Escherichia coli TOP10 beta-lactamase OXA-97 assessed as specific activity per mg of protein at 100 uM
readout: Activity (mU/mg)
# unit: mU/mg | format: bare number

Solved cases (4 shown):
# compound, Activity / mU/mg
measured = [
    ("CC1(C)S[C@@H]2[C@H](NC(=O)Cc3ccccc3)C(=O)N2[C@H]1C(=O)O", 220),
    ("C[C@@H](O)[C@H]1C(=O)N2C(C(=O)O)=C(SCCNC=N)C[C@H]12 [IMIPENEM ANHYDROUS]", 4),
    ("CC(C)(O/N=C(\\C(=O)N[C@@H]1C(=O)N2C(C(=O)[O-])=C(C[n+]3ccccc3)CS[C@H]12)c1csc(N)n1)C(=O)O [CEFTAZIDIME]", 0.5),
    ("C[C@@H](O)[C@H]1C(=O)N2C(C(=O)O)=C(S[C@@H]3CN[C@H](C(=O)N(C)C)C3)[C@H](C)[C@H]12 [MEROPENEM]", 1),
]

Q) Give Escherichia coli Activity for Cc1onc(-c2ccccc2)c1C(=O)N[C@@H]1C(=O)N2[C@@H]1SC(C)(C)[C@@H]2C(=O)O
A) 220

Q) Give Escherichia coli Activity for CC(=O)OCC1=C(C(=O)O)N2C(=O)[C@@H](NC(=O)Cc3cccs3)[C@H]2SC1
A) 20

* * *

# System: Acinetobacter baumannii
# method: Activity of Acinetobacter baumannii MAD beta-lactamase assessed per mg of protein at 100 uM
readout: log10 of Activity (log10 of the value in mU/mg)
Reminder: these figures are log10 of reported Activity, in mU/mg before transformation.

Solved cases (3 shown):
# compound, assayed target, log10 of Activity
records = [
    ("CC1(C)S[C@@H]2[C@H](NC(=O)Cc3ccccc3)C(=O)N2[C@H]1C(=O)O", "Acinetobacter baumannii", 2.23),
    ("CC(C)(O/N=C(\\C(=O)N[C@@H]1C(=O)N2C(C(=O)[O-])=C(C[n+]3ccccc3)CS[C@H]12)c1csc(N)n1)C(=O)O", "Acinetobacter baumannii", 0.30),
    ("Cc1onc(-c2ccccc2)c1C(=O)N[C@@H]1C(=O)N2[C@@H]1SC(C)(C)[C@@H]2C(=O)O", "Acinetobacter baumannii", 2.36),
]

Q) State the recorded log10 of Activity for this entry: C[C@@H](O)[C@H]1C(=O)N2C(C(=O)O)=C(SCCNC=N)C[C@H]12 [IMIPENEM ANHYDROUS]
A) 0.65

Q) State the recorded log10 of Activity for this entry: CC(=O)OCC1=C(C(=O)O)N2C(=O)[C@@H](NC(=O)Cc3cccs3)[C@H]2SC1
A) 1.18

Q) State the recorded log10 of Activity for this entry: C[C@@H](O)[C@H]1C(=O)N2C(C(=O)O)=C(S[C@@H]3CN[C@H](C(=O)N(C)C)C3)[C@H](C)[C@H]12
A) 0.18

* * *

# Tested on: Acinetobacter baumannii
# method: Antibacterial activity against Acinetobacter baumannii phenotype 2 […]
# Type: functional
# reported MIC; entries follow
# unit: µg/mL | format: bare number

Solved cases (4 shown):
# compound, assayed target, readout, numeric result
data = [
    ("CC1(C)S[C@@H]2[C@H](NC(=O)[C@H](C(=O)O)c3ccsc3)C(=O)N2[C@H]1C(=O)O", "Acinetobacter baumannii", "MIC", 64),
    ("C[C@@H](O)[C@H]1C(=O)N2C(C(=O)O)=C(SCCNC=N)C[C@H]12 [IMIPENEM ANHYDROUS]", "Acinetobacter baumannii", "MIC", 16),
    ("C[C@@H](O)[C@H]1C(=O)N2C(C(=O)O)=C(S[C@@H]3CN[C@H](C(=O)N(C)C)C3)[C@H](C)[C@H]12", "Acinetobacter baumannii", "MIC", 16),
    ("C[C@H]1[C@H](NC(=O)/C(=N\\OC(C)(C)C(=O)O)c2csc(N)n2)C(=O)N1S(=O)(=O)O", "Acinetobacter baumannii", "MIC", 128),
]

Next up:
Q) Give Acinetobacter baumannii MIC for CO/N=C(\C(=O)N[C@@H]1C(=O)N2C(C(=O)[O-])=C(C[N+]3(C)CCCC3)CS[C@H]12)c1csc(N)n1 [CEFEPIME]
A) 256
